# target.system: UniProtKB Q96EB6
# Sequence (Q96EB6 1-747): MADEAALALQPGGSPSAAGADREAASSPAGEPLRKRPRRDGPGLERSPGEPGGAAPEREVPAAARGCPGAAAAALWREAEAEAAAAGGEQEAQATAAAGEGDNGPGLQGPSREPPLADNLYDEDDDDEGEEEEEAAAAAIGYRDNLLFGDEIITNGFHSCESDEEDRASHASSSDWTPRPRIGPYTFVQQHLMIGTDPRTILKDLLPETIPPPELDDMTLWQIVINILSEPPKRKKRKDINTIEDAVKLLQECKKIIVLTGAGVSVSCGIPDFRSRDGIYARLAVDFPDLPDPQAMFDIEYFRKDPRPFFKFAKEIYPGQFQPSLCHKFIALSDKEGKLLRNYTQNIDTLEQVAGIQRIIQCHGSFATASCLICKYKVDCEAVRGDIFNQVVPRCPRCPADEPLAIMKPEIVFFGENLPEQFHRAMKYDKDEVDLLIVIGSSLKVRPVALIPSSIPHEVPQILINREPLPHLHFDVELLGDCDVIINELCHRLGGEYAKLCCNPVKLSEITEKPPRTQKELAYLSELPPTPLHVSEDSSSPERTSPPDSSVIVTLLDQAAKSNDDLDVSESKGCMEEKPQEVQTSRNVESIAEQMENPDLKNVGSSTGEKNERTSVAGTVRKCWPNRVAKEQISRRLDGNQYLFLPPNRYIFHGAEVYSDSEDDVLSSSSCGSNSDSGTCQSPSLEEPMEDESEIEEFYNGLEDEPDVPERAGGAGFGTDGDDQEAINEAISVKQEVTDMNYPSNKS
# test.protocol: Trp mass spectrometry assay (SIRT1 activation)
# Format: biochemical
# condition.set: concentration of test compound that results in 150% activation of SIRT1; Trp peptide substrate

compound	Tryp AVG EC1.5 (μM)
O=C(Nc1cccnc1)N1c2nc(N3CCCC(C(F)(F)F)C3)ccc2N2CCC[C@H]1C2 (some centres unmarked) [Example 288]	A (EC1.5<1 μM)
O=C(Nc1ccccn1)N1c2nc(-c3cncc(F)c3)ccc2N2CCC[C@H]1C2 [Example 470]	A (EC1.5<1 μM)
O=C(Nc1cccnc1)N1c2nc(-c3cccc(N4CCOCC4)c3)ccc2N2CCC[C@H]1C2 [Example 538]	A (EC1.5<1 μM)
O=C(Nc1cccc(-c2cnco2)c1)N1c2nc(-c3cccc(Cl)c3)ccc2N2CCC1CC2 [Example 497]	A (EC1.5<1 μM)
O=C(Nc1cccc(-c2cnco2)n1)N1c2nc(-c3cccc(C(F)(F)F)c3)ccc2N2CC[C@H]1C2 [Example 588]	A (EC1.5<1 μM)
Cn1ccc(-c2ccc3c(n2)N(C(=O)Nc2ccccn2)[C@H]2CCN3C2)n1 [Example 331]	B (EC1.5 1-25 μM)
O=C(Nc1cccc(-c2cnco2)c1)N1c2nc(-c3cccc(C(F)(F)F)c3)ccc2N2CCC1CC2 [Example 473]	A (EC1.5<1 μM)
Cc1csc(NC(=O)N2c3nc(N4CCCC(C(F)(F)F)C4)ccc3N3CCC[C@H]2C3)n1 (some centres unmarked) [Example 297]	B (EC1.5 1-25 μM)

###

# target.system: SIRT1 (Homo sapiens)
# test.protocol: Trp mass spectrometry assay (SIRT1 activation)
# Format: biochemical
# condition.set: concentration of test compound that results in 150% activation of SIRT1; Trp peptide substrate

compound	Tryp AVG EC1.5 (μM)
NC(=O)CN1CCC(c2cccc(NC(=O)N3c4nc(-c5cccc(C(F)(F)F)c5)ccc4N4CC[C@H]3C4)c2)C1 (stereo partly shown) [Example 594]	A (EC1.5<1 μM)
O=C(Nc1cccnn1)N1c2nc(-c3cccnc3)ccc2N2CCC[C@H]1C2 [Example 457]	B (EC1.5 1-25 μM)
Cc1ccc(-c2ccc3c(n2)N(C(=O)Nc2cccnn2)[C@H]2CCCN3C2)cn1 [Example 467]	B (EC1.5 1-25 μM)
O=C(Nc1cncc(F)c1)N1c2nc(-c3ccnc(N4CCC(C(F)(F)F)C4)c3)ccc2N2CC[C@H]1C2 (stereo partly shown) [Example 410]	A (EC1.5<1 μM)
